# Assay Details: Second sacrificial agent testing protocol: paste air measurements with DDBS (0.0125 wt %) and rating
# Condition Context: Portland cement paste (PCA); […]
# Description: The second sacrificial agents evaluation protocol has been designed to assess the relative potential value of candidate sacrificial agents with a maximum of five paste air measurements. […] For the relative performance rating of the group of products chosen as potential SA and listed in Table 36, the following rating scheme (Tables A and B) was adopted (referring to FIG. 8 and quantities defined therein): […]
So basically: is PCA + 0.1% SA (level of air entrainment by the candidate sacrificial agent) under 0.7? Then YES. Not under? Then NO.

[
  {
    "Molecule": "COC(=O)CC(=O)OC [Dimethyl malonate]",
    "Category": "YES"
  },
  {
    "Molecule": "NC(N)=O [Urea]",
    "Category": "YES"
  },
  {
    "Molecule": "CCCCCCCC/C=C\\CCCCCCCC(=O)OC [Methyloleate]",
    "Category": "YES"
  },
  {
    "Molecule": "CCCCCCCC/C=C\\CCCCCCCC(=O)O [Oleic acid]",
    "Category": "NO"
  },
  {
    "Molecule": "CCCCNC(N)=O [n-butyl urea]",
    "Category": "NO"
  },
  {
    "Molecule": "CCCCCCCCCCCCCCCC(=O)OC [Methylpalmitate]",
    "Category": "NO"
  },
  {
    "Molecule": "O=C(O)c1ccc(O)cc1 [4-Hydroxybenzoic acid]",
    "Category": "NO"
  },
  {
    "Molecule": "OCC(O)CO [Glycerol]",
    "Category": "YES"
  },
  {
    "Molecule": "O=P(O)(O)OP(=O)(O)OP(=O)(O)O [Sodium tripolyphosphate]",
    "Category": "YES"
  },
  {
    "Molecule": "CC#N [Acetonitrile]",
    "Category": "YES"
  },
  {
    "Molecule": "CCC(=O)OC [Methylpropionate]",
    "Category": "YES"
  },
  {
    "Molecule": "O=S(=O)([O-])c1ccc2ccccc2c1.[Na+] [NS, Sodium 2-Naphthalene sulfonate]",
    "Category": "NO"
  },
  {
    "Molecule": "CCC(O)CC [3-Pentanol]",
    "Category": "YES"
  },
  {
    "Molecule": "CC(C)(C)CO [Neopentanol]",
    "Category": "NO"
  },
  {
    "Molecule": "O=C(O)CCCCC(=O)O [Adipic acid]",
    "Category": "YES"
  },
  {
    "Molecule": "C=CN1CCCC1=O [n-Vinyl-2-pyrrolidinone]",
    "Category": "NO"
  },
  {
    "Molecule": "Nc1c(O)cc(S(=O)(=O)[O-])c2ccccc12.[Na+]",
    "Category": "YES"
  },
  {
    "Molecule": "O=C(O)c1cc(O)ccc1O [2,5-Dihydroxybenzoic acid]",
    "Category": "YES"
  },
  {
    "Molecule": "OC[C@@H](O)[C@@H](O)[C@H](O)[C@@H](O)CO [Sorbitol]",
    "Category": "YES"
  },
  {
    "Molecule": "CCOC(=O)CC [Ethylpropionate]",
    "Category": "NO"
  },
  {
    "Molecule": "CCCOCCO [Ethylene Glycol n-Propyl Ether]",
    "Category": "NO"
  },
  {
    "Molecule": "CCc1ccc(S(=O)(=O)O)cc1 [4-Ethyl benzene sulfonic acid]",
    "Category": "NO"
  },
  {
    "Molecule": "OCc1ccccc1 [Benzyl alcohol]",
    "Category": "YES"
  }
]
